MEASURED TARGET: UniProtKB P0DTD1
pIC50: −log10 of the molar value.
METRIC: pIC50

{"columns": ["MOLECULE", "MEASURED TARGET", "REPORTED RESULT"],
 "data": [
  ["CC1=C(/C=C/C(C)=C/C=C/C(C)=C/C(=O)O)C(C)(C)CCC1 [all-trans retinoic acid]", "UniProtKB P0DTD1", 4.61]
]}
